Recorded perc_remaining_no_cofactor values for a group of compounds are listed next.
# Method Description: Hepatic microsomal stability, MLM
# Type: in vitro ADME
# Test Parameters: In vitro mouse liver microsomal stability, no cofactor
All answers are understood in %, so give the number only.

# Compound, Measured Quantity, Value Unit, Measured Value
measured = [
    ("CC(C)[C@@H](Nc1ncnc2[nH]c(-c3ccc4nnn(C)c4c3)cc12)c1ccc2c(c1)S(=O)(=O)CCC2", "perc_remaining_no_cofactor", "%", 93.0),
    ("CCNC(=O)c1cc2c(N[C@@H](c3ccc4c(c3)S(=O)(=O)NCC4)C(C)C)ncnc2[nH]1", "perc_remaining_no_cofactor", "%", 101.0),
    ("CNC(=O)c1cc2c(N[C@@H](c3ccc4c(c3)NC(=O)CO4)C(C)C)ncnc2[nH]1 [ASAP-0011219]", "perc_remaining_no_cofactor", "%", 99.0),
]

Okay, next one:
perc_remaining_no_cofactor measured on CC(C)[C@@H](Nc1ncnc2[nH]c(-c3cnn(CC(=O)N(C)C)c3)cc12)c1ccc2c(c1)S(=O)(=O)CCC2 = 102.0

---

Recorded perc_inhibition (% inhibition of the binding of a ligand specific for each target) values for a group of molecules are listed next.
# System Under Test: GR (h) (Homo sapiens, UniProt P04150)
# Construct: purchased Eurofins Cerep (SafetyScreen44), recognised from the panel format
# Sequence (P04150 whole entry): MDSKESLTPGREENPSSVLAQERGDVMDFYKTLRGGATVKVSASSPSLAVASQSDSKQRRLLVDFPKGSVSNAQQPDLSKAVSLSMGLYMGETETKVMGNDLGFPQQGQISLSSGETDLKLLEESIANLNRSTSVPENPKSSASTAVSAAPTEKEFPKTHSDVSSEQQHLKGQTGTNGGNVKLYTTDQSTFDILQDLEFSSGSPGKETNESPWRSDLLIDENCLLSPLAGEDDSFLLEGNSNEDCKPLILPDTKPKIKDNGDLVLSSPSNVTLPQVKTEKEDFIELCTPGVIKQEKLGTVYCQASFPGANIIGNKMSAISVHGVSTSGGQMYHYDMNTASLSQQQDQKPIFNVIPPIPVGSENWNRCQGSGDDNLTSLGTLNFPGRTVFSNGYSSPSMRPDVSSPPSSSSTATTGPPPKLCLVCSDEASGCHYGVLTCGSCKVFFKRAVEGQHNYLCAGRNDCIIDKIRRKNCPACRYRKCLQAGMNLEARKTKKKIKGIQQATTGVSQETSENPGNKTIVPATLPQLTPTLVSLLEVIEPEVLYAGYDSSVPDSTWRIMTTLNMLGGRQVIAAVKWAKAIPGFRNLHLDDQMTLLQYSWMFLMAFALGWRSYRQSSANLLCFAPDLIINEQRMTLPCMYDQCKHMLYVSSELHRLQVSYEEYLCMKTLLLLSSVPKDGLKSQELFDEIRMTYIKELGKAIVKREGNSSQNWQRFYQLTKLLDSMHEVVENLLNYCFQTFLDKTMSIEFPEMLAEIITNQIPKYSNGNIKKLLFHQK
# Method Description: In vitro CEREP profiling, GR (h) (agonist radioligand)
# Assay type: binding
# Test Parameters: test compound concentration 10 uM
All answers are understood in %, so give the number only.

# Chem Smiles, System Under Test, Measured Value
data = [
    ("CNCc1cc(-c2cc3c(N[C@@H](c4ccc5c(c4)S(=O)(=O)CCC5)C(C)C)ncnc3[nH]2)co1", "GR (h) (Homo sapiens, UniProt P04150)", 21),
]

# perc_inhibition (% inhibition of the binding of a ligand specific for each target) measured on GR (h) (Homo sapiens, UniProt P04150) for item CC(C)[C@@H](Nc1ncnc2[nH]c(-c3cnn(C)c3C#N)cc12)c1ccc2c(n1)OCCO2 = 22

# perc_inhibition (% inhibition of the binding of a ligand specific for each target) measured on GR (h) (Homo sapiens, UniProt P04150) for item Cn1ncc(-c2cc3c(N[C@@H](c4ccc5c(n4)OCCO5)C(C)(C)C)ncnc3[nH]2)c1C#N = 28

# perc_inhibition (% inhibition of the binding of a ligand specific for each target) measured on GR (h) (Homo sapiens, UniProt P04150) for item CC(C)[C@H](Nc1ncnc2[nH]c(-c3cnn(C)c3C#N)cc12)c1ccc2c(n1)OCCO2 = 11

# perc_inhibition (% inhibition of the binding of a ligand specific for each target) measured on GR (h) (Homo sapiens, UniProt P04150) for item COc1ccc([C@H](Cc2nnn[nH]2)NC(=O)c2ncnc3[nH]ccc23)cc1 = 1

# perc_inhibition (% inhibition of the binding of a ligand specific for each target) measured on GR (h) (Homo sapiens, UniProt P04150) for item C[C@H](C(=O)O)[C@@H](NC(=O)c1ncnc2[nH]ccc12)c1ccc(Br)cc1 = 3

# perc_inhibition (% inhibition of the binding of a ligand specific for each target) measured on GR (h) (Homo sapiens, UniProt P04150) for item CC(C)[C@H](Nc1ncnc2[nH]ccc12)c1ccc2c(c1)S(=O)(=O)CCC2 = 10

---

# Test system: MDR1
# Method Description: Permeability Papp (AB) MDR1/MDCKII
# Test Parameters: dog, MDCK-MDR1, efflux_ratio, In vitro MDR1-MDCKII permeability, no inhibitor
Measured Quantity: efflux ratio
Answer as a number with no unit attached.

# Compound, efflux ratio
data = [
    ("CC(C)C(Nc1ncnc2[nH]c(C(=O)NC3CCN(C)C3)cc12)c1ccc2c(c1)S(=O)(=O)CCC2 (centres unmarked)", 1.3),
]

Okay, next one:
efflux ratio measured on Cc1nn(C)cc1-c1cc2c(NC(c3ccc4c(c3)S(=O)(=O)CCC4)C(C)C)ncnc2[nH]1 (centres unmarked) = 41.1

---

# System Under Test: SARS-CoV-2 nsp3-mac1 (Severe acute respiratory syndrome coronavirus 2, UniProt P0DTD1)
# Method Description: biochemical
# Type: biochemical
# Test Parameters: SARS-CoV-2 nsp3 macrodomain TR-FRET single point, concentration 100.0 uM
Measured Quantity: perc_inhibition_mean (%)
All answers are understood in %, so give the number only.

# perc_inhibition_mean measured on SARS-CoV-2 nsp3-mac1 (Severe acute respiratory syndrome coronavirus 2, UniProt P0DTD1) for item CO[C@@]1(C(=O)O)CCN(C(=O)c2ncnc3[nH]ccc23)C1 = -3.71

# perc_inhibition_mean measured on SARS-CoV-2 nsp3-mac1 (Severe acute respiratory syndrome coronavirus 2, UniProt P0DTD1) for item c1ccc(-c2cc(CNc3ncnc4[nH]ccc34)on2)cc1 = -3.456

# perc_inhibition_mean measured on SARS-CoV-2 nsp3-mac1 (Severe acute respiratory syndrome coronavirus 2, UniProt P0DTD1) for item O=C(NCc1ccc(Cl)cn1)c1ncnc2[nH]ccc12 = -2.568

# perc_inhibition_mean measured on SARS-CoV-2 nsp3-mac1 (Severe acute respiratory syndrome coronavirus 2, UniProt P0DTD1) for item Cc1cc(C(=O)Nc2[nH]nc3nc(O)ccc23)c2c(C)nn(C)c2n1 = -3.323

# perc_inhibition_mean measured on SARS-CoV-2 nsp3-mac1 (Severe acute respiratory syndrome coronavirus 2, UniProt P0DTD1) for item O=C(NCc1cccc(F)n1)c1cnc2nc[nH]c(=O)c2c1 = -14.602

# perc_inhibition_mean measured on SARS-CoV-2 nsp3-mac1 (Severe acute respiratory syndrome coronavirus 2, UniProt P0DTD1) for item FC(F)(F)Oc1ccccc1-c1ncnc2[nH]ccc12 = 2.117

---

Recorded perc_inhibition_mean values for a group of molecules are listed next.
# System Under Test: SARS-CoV-2 nsp3-mac1 (Severe acute respiratory syndrome coronavirus 2)
# Method Description: biochemical
# Assay type: biochemical
# Test Parameters: SARS-CoV-2 nsp3 macrodomain TR-FRET single point, concentration 50.0 uM
All answers are understood in %, so give the number only.

Past entries and their recorded results:
# Chem Smiles, Measured Quantity, Measured Value
data = [
    ("CC[C@@H]1C[C@@H](C(=O)Nc2ncnc3[nH]c(C)c(C)c23)CCO1", "perc_inhibition_mean", 12.08),
    ("COCc1cc(CNc2cc3c(O)ncnc3cn2)no1", "perc_inhibition_mean", 3.308),
    ("Fc1ccc(OC(F)F)c(CNc2cnc3[nH]ncc3c2)c1", "perc_inhibition_mean", -6.672),
    ("Cc1[nH]c2ncnc(NC(=O)[C@@H]3CCO[C@@H]3C)c2c1C", "perc_inhibition_mean", 35.092),
    ("c1cnc([C@@H]2CCN(c3ncnc4[nH]ccc34)C2)cn1", "perc_inhibition_mean", -1.697),
]

Okay, next one:
perc_inhibition_mean measured on CC(=O)Nc1ccc(S(=O)(=O)NNc2ncnc3sccc23)cc1 = 5.363

---

Recorded logd values for a group of molecules are listed next.
# Method Description: LogD
# Test Parameters: pH 7.4; In vitro LogD
Answer as a number with no unit attached.

logd measured on CC(C)[C@H](Nc1ncnc2[nH]c(-c3cnn(CC(N)=O)c3)cc12)c1ccc2c(c1)S(=O)(=O)CCC2 (racemic) [ASAP-0008679] = 1.9

logd measured on CC(C)(C)[C@H](Nc1ncnc2[nH]c(-c3cnn(CC(N)=O)c3)cc12)c1ccc2c(c1)OCCO2 (racemic) [ASAP-0008581] = 3.2

logd measured on CC(C)[C@H](Nc1ncnc2[nH]c(-c3cnn(C)c3C#N)cc12)c1ccc2c(c1)NC(=O)CO2 (single isomer, unassigned) [ASAP-0013256] = 3.4

---

# Method Description: Protein binding
# Assay type: in vitro ADME
# Test Parameters: In vitro dog plasma protein binding
Entries whose perc_free is below 4% take condition met; entries at or above 4% take condition not met.

Reference set (3 entries):
# Molecule, Discrete Label
data = [
    ("CC(C)[C@@H](Nc1ncnc2[nH]c(-c3cnn(C)c3C#N)cc12)c1ccc2c(n1)OCCO2 [ASAP-0010716]", "condition met"),
    ("CNCc1cc(-c2cc3c(N[C@@H](c4ccc5c(c4)S(=O)(=O)CCC5)C(C)C)ncnc3[nH]2)co1 [ASAP-0011176]", "condition not met"),
    ("Cn1ncc(-c2cc3c(N[C@@H](c4ccc5c(n4)OCCO5)C(C)(C)C)ncnc3[nH]2)c1C#N [ASAP-0011221]", "condition met"),
]

Q) # check: perc_free < 4% for CC(C)[C@H](Nc1ncnc2[nH]ccc12)c1ccc2c(c1)S(=O)(=O)CCC2 [ASAP-0008674]
A) condition not met

Q) # check: perc_free < 4% for CC(C)C(Nc1ncnc2[nH]c(C(=O)NC3CCN(C)C3)cc12)c1ccc2c(c1)S(=O)(=O)CCC2 (centres unmarked) [ASAP-0011198]
A) condition not met

Q) # check: perc_free < 4% for COc1ccc([C@H](Cc2nnn[nH]2)NC(=O)c2ncnc3[nH]ccc23)cc1 [ASAP-0015381]
A) condition not met

Q) # check: perc_free < 4% for CC(C)[C@H](Nc1ncnc2[nH]c(-c3cnn(C)c3C#N)cc12)c1ccc2c(n1)OCCO2 [ASAP-0010715]
A) condition not met
